Sourced from ChEMBL document CHEMBL2057151

- Study System: Corticotropin-releasing factor receptor 1 (Rattus norvegicus, UniProt P35353)
- Sequence (P35353 whole entry): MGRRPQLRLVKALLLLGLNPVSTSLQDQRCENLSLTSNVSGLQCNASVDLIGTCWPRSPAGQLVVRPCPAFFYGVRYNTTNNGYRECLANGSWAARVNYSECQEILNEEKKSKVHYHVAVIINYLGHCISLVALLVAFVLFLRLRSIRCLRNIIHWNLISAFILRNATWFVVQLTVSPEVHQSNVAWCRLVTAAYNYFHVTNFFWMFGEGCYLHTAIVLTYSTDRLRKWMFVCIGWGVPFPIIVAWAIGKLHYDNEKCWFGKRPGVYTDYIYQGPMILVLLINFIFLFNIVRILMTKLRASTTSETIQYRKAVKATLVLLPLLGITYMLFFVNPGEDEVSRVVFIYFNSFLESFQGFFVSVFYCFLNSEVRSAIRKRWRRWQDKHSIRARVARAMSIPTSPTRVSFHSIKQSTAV
- Assay Comment: Antagonist activity at rat CFR1R
pIC50: −log10 of the molar value.
Parameter: pIC50

# count of solved cases: 2
                                   compound  readout_number
0  CC[C@@H](C1CC1)n1c(=O)c(C)nc2c(-c3ccc(OC(F)F)cc3Cl)ccnc21            8.14
1  CCC(COC)n1c(=O)c(C)nc2c(-c3cc(F)c(OC)cc3Cl)ncnc21 (stereo not given)            7.80

(P) CCC(C1CC1)n1c(=O)c(C)nc2c(-c3ccc(C)cc3C)ccnc21 (racemic)
(Q) CC[C@H](C1CC1)n1c(=O)c(C)nc2c(-c3ccc(OC)cc3Cl)ccnc21
(R) CC[C@H](COC)n1c(=O)c(C)nc2c(-c3ccc(Cl)cc3Cl)ncnc21
(S) CC[C@@H](C1CC1)n1c(=O)c(C)nc2c(-c3ccc(C(F)(F)F)cc3Cl)ccnc21
Rank ascending by pIC50. Answer by listing the labels in the requested order.
R, S, P, Q
(R: 7.01, S: 7.68, P: 8.06, Q: 8.35)

----------
- Study System: UniProt P35353
- Assay Comment: Antagonist activity at rat CFR1R
Parameter: IC50 (nM)

# count of solved cases: 2
                                   compound  parameter   u  readout_number
0  CC[C@@H](C1CC1)n1c(=O)c(C)nc2c(-c3ccc(OC)cc3Cl)ccnc21       IC50  nM               4
1  CC[C@H](C1CC1)n1c(=O)c(C)nc2c(-c3cc(F)c(OC)cc3C)ccnc21       IC50  nM             9.4

(1) COCC(C1CC1)n1c(=O)c(C)nc2c(-c3cc(F)c(OC)cc3Cl)ncnc21 (centres undefined)
(2) CC[C@@H](C1CC1)n1c(=O)c(C)nc2c(-c3ccc(Cl)cc3Cl)nccc21
Kindly identify which of 1 and 2 has the larger recorded IC50 value. Please indicate the selected item by its label.
2
(2: 55 nM, 1: 7.5 nM)
